# tested_on: T1, IRP1 (iron regulatory protein 1) (rabbit, UniProt Q01059 1-889)
# T1 sequence: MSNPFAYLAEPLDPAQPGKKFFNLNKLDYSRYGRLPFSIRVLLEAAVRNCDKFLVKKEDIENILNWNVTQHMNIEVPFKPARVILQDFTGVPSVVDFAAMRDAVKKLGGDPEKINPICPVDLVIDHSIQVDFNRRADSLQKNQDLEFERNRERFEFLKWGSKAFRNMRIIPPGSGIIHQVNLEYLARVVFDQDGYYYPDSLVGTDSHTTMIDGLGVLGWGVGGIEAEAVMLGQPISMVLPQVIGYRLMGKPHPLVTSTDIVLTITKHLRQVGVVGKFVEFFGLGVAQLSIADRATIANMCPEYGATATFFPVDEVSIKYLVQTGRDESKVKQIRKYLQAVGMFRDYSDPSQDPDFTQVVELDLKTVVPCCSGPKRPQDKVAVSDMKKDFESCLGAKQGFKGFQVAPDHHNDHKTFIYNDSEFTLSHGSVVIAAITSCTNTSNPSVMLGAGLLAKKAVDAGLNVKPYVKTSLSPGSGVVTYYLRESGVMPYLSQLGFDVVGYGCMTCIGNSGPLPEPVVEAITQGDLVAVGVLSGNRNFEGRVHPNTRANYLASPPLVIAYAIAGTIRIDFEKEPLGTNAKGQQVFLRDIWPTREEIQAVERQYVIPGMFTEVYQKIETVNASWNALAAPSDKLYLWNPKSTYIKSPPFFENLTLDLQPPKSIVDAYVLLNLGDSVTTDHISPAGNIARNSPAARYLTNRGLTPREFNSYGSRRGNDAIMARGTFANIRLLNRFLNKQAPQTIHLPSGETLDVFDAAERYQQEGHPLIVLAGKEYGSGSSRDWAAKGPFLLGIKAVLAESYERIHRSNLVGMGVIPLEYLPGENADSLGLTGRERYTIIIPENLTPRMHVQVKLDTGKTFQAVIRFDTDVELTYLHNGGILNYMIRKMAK
# assay_protocol: stopped-flow fluorescence anisotropy (koff/kon); 150 mM KCl; kon 39, koff 7.4; 40 mM HEPES pH 7.2, 100 mM KCl, 1 mM MgCl2 (Methods; not listed in the Figure 2 legend), 5% glycerol, 2% 2-mercaptoethanol, 25 C; RNA 50 nM with IRP1 0.05-1 uM; eIF4F 0.1 uM with RNA 0.1-0.5 uM
# conditions: protein: recombinant; tags: Ni-chelate purified; hairpin with mid-helix bulge C and hexaloop
measured_attribute: Kd (nM)

1) CCUCAUCUUUGUCAGUGCACAAAAUGGCG (structured_RNA) [ACO2 IRE-RNA, fluorescein labeled (FIACO2 IRE-RNA)] | 190

Attribution: paper PMC4041422
